Provenance of the data: ChEMBL document CHEMBL1134873

System: Trichinella spiralis
Assay: Percentage viability reduction of Trichinella spiralis muscle larvae after 3 days of incubation; No reduction observed
Format: functional, organism-based

# molecule, Viability
measured = [
    ("c1ccc2[nH]cnc2c1 [BENZIMIDAZOLE]", "No reduction observed"),
    ("COC(=O)Nc1nc2ccccc2[nH]1 [CARBENDAZIM]", "No reduction observed"),
    ("CSc1nc2ccccc2[nH]1", "No reduction observed"),
    ("Cc1nc2ccccc2[nH]1", "No reduction observed"),
]

---

Test system: Giardia intestinalis
Experiment: The compound was tested in vitro against the protozoa Giardia lamblia, for the inhibition of tubulin polymerization in rat brain
Format: functional
Conditions: Giardia duodenalis
Dear colleague, classification is by IC50, with ranges listed here: range 1: < 60 nM; range 2: ≥ 60 nM and < 200 nM; range 3: ≥ 200 nM

# smiles representation, experimental system, assigned class
rows = [
    ("COC(=O)Nc1nc2cc(Cl)c(Cl)cc2[nH]1", "Giardia intestinalis", "range 2"),
    ("COC(=O)Nc1nc2cc(Cl)ccc2[nH]1", "Giardia intestinalis", "range 2"),
    ("Clc1ccc2[nH]cnc2c1", "Giardia intestinalis", "range 3"),
    ("Clc1cc2nc[nH]c2cc1Cl", "Giardia intestinalis", "range 3"),
    ("Nc1nc2cc(Cl)c(Cl)cc2[nH]1", "Giardia intestinalis", "range 3"),
]

For `Sc1nc2cc(Cl)ccc2[nH]1` , which IC50 bin applies?
range 2

GET /class?item= `CSc1nc2cc(Cl)c(Cl)cc2[nH]1`
range 3

Assign a category based on measured IC50 for `Sc1nc2cc(Cl)c(Cl)cc2[nH]1` and give only the class name.
range 2

Please let me know in which category the item `Nc1nc2ccc(Cl)cc2[nH]1` belongs.
range 1

Record `CSc1nc2cc(Cl)ccc2[nH]1` — which class?
range 1

---

Tested on: Entamoeba histolytica
Experiment: The compound was tested in vitro against the protozoa Entamoeba histolytica, for the inhibition of tubulin polymerization in rat brain
Assay type: functional
pIC50: −log10 of the molar value.
Classify by measured pIC50: true (1) if it is equal to or exceeds 7, false (0) if it is smaller.

Examples from the recorded data:
# compound, assigned class
measured = [
    ("COC(=O)Nc1nc2ccccc2[nH]1 [CARBENDAZIM]", "false (0)"),
    ("Nc1nc2cc(Cl)c(Cl)cc2[nH]1", "true (1)"),
    ("COC(=O)Nc1nc2cc(Cl)ccc2[nH]1", "false (0)"),
    ("c1ccc2[nH]cnc2c1 [BENZIMIDAZOLE]", "true (1)"),
    ("Cc1nc2ccccc2[nH]1", "true (1)"),
    ("Sc1nc2cc(Cl)c(Cl)cc2[nH]1", "true (1)"),
    ("Cc1nc2cc(Cl)c(Cl)cc2[nH]1", "true (1)"),
    ("COC(=O)Nc1nc2cc(Cl)c(Cl)cc2[nH]1", "true (1)"),
]

Tell me whether pIC50 is at least 7 here: `CSc1nc2ccccc2[nH]1`
false (0)

Reported pIC50 reaches at least 7 for `Clc1ccc2[nH]cnc2c1` ?
true (1)

Could you please find out whether `Sc1nc2cc(Cl)ccc2[nH]1` has pIC50 that meets 7 or exceeds it?
true (1)

Quick check: does `CSc1nc2cc(Cl)ccc2[nH]1` have pIC50 greater than or equal to 7?
false (0)

I'd appreciate it if you could say whether `CSc1nc2cc(Cl)c(Cl)cc2[nH]1` has pIC50 at least equal to 7.
false (0)
